System: DU-4475
procedure-details: normalised viability (% of control), CellTiter-Blue; higher = more viable cells (about 100 = DMSO control)
condition-label: incubation time: 72 h
property: normalised viability (%)
Could you give me the number in %? Just the number is fine.

The following compounds have reported results that may help.
# compound, observed-measurement
records = [
    ("CC(C)C[C@@H](C(=O)N[C@H](C(=O)OC1CCCC1)c1ccccc1)[C@H](O)C(=O)NO [Tosedostat] (3000 nM)", 48.1),
    ("Cc1[nH]c2ccccc2c1CCNCc1ccc(/C=C/C(=O)NO)cc1 [Panobinostat] (300 nM)", 6.86),
    ("O=C(Nc1cccnc1)N1CCC(Cc2cccc(Oc3ccc(C(F)(F)F)cn3)c2)CC1 [PF-3845] (3000 nM)", 93.9),
]

Query normalised viability for Cc1ccc(NC(=O)c2ccc(CN3CCN(C)CC3)cc2)cc1Nc1nc(-c2cccnc2)cs1 [Masitinib] (3000 nM)
125

====

Test system: MDA-MB-231
procedure-details: drug sensitivity score (DSS), CellTox Green (DSS (AUC-based score)); higher = stronger drug effect (viability inhibition or cytotoxicity); extreme values may be limits of the assay
condition-label: incubation time: 72 h
property: drug sensitivity score
Write the number on its own, no unit after it.

Here are 7 compounds together with their reported answers.
# compound, observed-measurement
records = [
    ("CCOC(=O)CCNc1cc(N2CCc3ccccc3CC2)nc(-c2ccccn2)n1 [GSK-J4]", 11.1),
    ("CNC(=O)c1cccc(-c2ccc3c(N4CCOC[C@@H]4C)nc(N4CCOC[C@@H]4C)nc3n2)c1 [AZD2014]", 0),
    ("CN(C)c1nc(N(C)C)nc(N(C)C)n1 [Altretamine]", 0),
    ("c1ccc2c(CCNc3ccc(Nc4ccncc4)cc3)c[nH]c2c1 [Serdemetan]", 2.18),
    ("Cc1cc(Nc2cc(CN3CCOCC3)c3nc(C)c(Cc4ccc(Cl)cc4F)n3n2)n[nH]1 [Gandotinib]", 0),
    ("COc1cc2/c(=N/c3ccc(Br)cc3F)nc[nH]c2cc1OCC1CCN(C)CC1 [Vandetanib]", 3.15),
    ("O=C(Nc1ccncc1)C(=O)c1cn(Cc2ccc(Cl)cc2)c2ccccc12 [Indibulin]", 8.72),
]

For the compound Cc1ccc(NC(=O)c2ccc(CN3CCN(C)CC3)cc2)cc1Nc1nc(-c2cccnc2)cs1 [Masitinib] , report drug sensitivity score.
5.53

====

System: MDA-MB-231
procedure-details: normalised response (% of control), CellTiter-Glo; higher = more viable cells (100 = DMSO, 0 = benzethonium chloride kill control)
condition-label: incubation time: 72 h
property: normalised response (%)
Give the quantity in %, number only.

// below: answered molecules
# molecule, property, observed-measurement
measured = [
    ("CCn1c(-c2nonc2N)nc2cnc(Oc3cccc(NC(=O)c4ccc(OCCN5CCOCC5)cc4)c3)cc21 (100 nM)", "normalised response", 86.5),
    ("COC(=O)c1ccc2c(c1)NC(=O)/C2=C(\\Nc1ccc(N(C)C(=O)CN2CCN(C)CC2)cc1)c1ccccc1 [Nintedanib] (100 nM)", "normalised response", 105),
    ("S=P(N1CC1)(N1CC1)N1CC1 [Thio-TEPA] (500 nM)", "normalised response", 98.8),
]

# assay system MDA-MB-231: give normalised response of Nc1cc(C(F)(F)F)c(-c2cc(N3CCOCC3)nc(N3CCOCC3)n2)cn1 [Buparlisib] (100 nM)
93

Lab note: record normalised response of COCC1(CO)C(=O)C2CCN1CC2 (configuration not stated) [Prima-1 Met] (100 nM) tested on MDA-MB-231.
97.5

====

System: MDA-MB-453
procedure-details: normalised viability (% of control), CellTiter-Blue; higher = more viable cells (about 100 = DMSO control)
condition-label: 30 nM; incubation time: 72 h
Measured normalised viability, listed per entry.
Give just the numeric value; % need not be written.

# compound, normalised viability / %
measured = [
    ("Cc1cc(Nc2cc(CN3CCOCC3)c3nc(C)c(Cc4ccc(Cl)cc4F)n3n2)n[nH]1", 101),
    ("CC(C)C[C@@H](C(=O)N[C@H](C(=O)OC1CCCC1)c1ccccc1)[C@H](O)C(=O)NO [Tosedostat]", 101),
    ("O=C(Nc1cccnc1)N1CCC(Cc2cccc(Oc3ccc(C(F)(F)F)cn3)c2)CC1 [PF-3845]", 101),
    ("COCC1(CO)C(=O)C2CCN1CC2 (configuration not stated) [Prima-1 Met]", 107),
    ("O=C(/C=C/c1cccc(S(=O)(=O)Nc2ccccc2)c1)NO [Belinostat]", 82.5),
    ("Nc1cc(C(F)(F)F)c(-c2cc(N3CCOCC3)nc(N3CCOCC3)n2)cn1 [BKM-120]", 114),
]

Continue with the next compound.
Retrieve normalised viability measured for COCC[n+]1c2c(n(Cc3cnccn3)c1C)C(=O)c1ccccc1C2=O [YM155] and print it.
18.7

====

// values below are reported normalised response
Tested on: MFM-223
procedure-details: normalised response (% of control), CellTiter-Glo; higher = more viable cells (100 = DMSO, 0 = benzethonium chloride kill control)
condition-label: incubation time: 72 h
Write down the numeric answer in % and omit the unit.

Worked cases, normalised response given:
# molecule, property, observed-measurement
data = [
    ("COc1cc2c(NC3CCN(C(C)C)CC3)nc(N3CCC(F)(F)CC3)nc2cc1OCCCN1CCCC1 [UNC0642] (100 nM)", "normalised response", 96.2),
    ("COCC1(CO)C(=O)C2CCN1CC2 (stereo not given) [Prima-1 Met] (100 nM)", "normalised response", 107),
    ("CNC(=O)c1cc(Oc2ccc(NC(=O)Nc3ccc(Cl)c(C(F)(F)F)c3)c(F)c2)ccn1 [Regorafenib] (100 nM)", "normalised response", 102),
]

Please indicate normalised response recorded for c1ccc2c(CCNc3ccc(Nc4ccncc4)cc3)c[nH]c2c1 [Serdemetan] (100 nM)
99.9

Please give the documented normalised response of CNC(=O)c1cccc(-c2ccc3c(N4CCOC[C@@H]4C)nc(N4CCOC[C@@H]4C)nc3n2)c1 [AZD2014] (100 nM)
75.1

====

Test system: HCC1143
procedure-details: normalised response (% of control), CellTox Green; higher = less cell death (100 = DMSO, 0 = benzethonium chloride kill control)
condition-label: incubation time: 72 h
property: normalised response (%)
Answer with a number only, understood to be in %.

Here is how some compounds turned out for normalised response.
# compound, observed-measurement
records = [
    ("NC(=O)c1ccc(I)c([N+](=O)[O-])c1 [Iniparib] (1000 nM)", 101),
    ("COCC1(CO)C(=O)C2CCN1CC2 (stereo not drawn) [Prima-1 Met] (10000 nM)", 93),
    ("N#Cc1ccc(COC[C@H]2O[C@@H](n3c(NCc4ccc(Cl)c(Cl)c4)nc4c(N)ncnc43)[C@H](O)[C@@H]2O)cc1 (10000 nM)", 79.2),
    ("O=C(Nc1cccnc1)N1CCC(Cc2cccc(Oc3ccc(C(F)(F)F)cn3)c2)CC1 [PF-3845] (100 nM)", 121),
    ("Cc1ccc(NC(=O)c2ccc(CN3CCN(C)CC3)cc2)cc1Nc1nc(-c2cccnc2)cs1 [Masitinib] (100 nM)", 105),
]

# return recorded normalised response for entry CNC(=O)c1cccc(-c2ccc3c(N4CCOC[C@@H]4C)nc(N4CCOC[C@@H]4C)nc3n2)c1 [AZD2014] (1000 nM)
97.5

For the compound COc1cc(OC2CCN(C)CC2)ccc1Nc1ncc2c(n1)n(C1CCCC1)c(=O)n2C [AZ 3146] (1000 nM) , give its measured normalised response value.
87.6

Using known records, supply normalised response for S=P(N1CC1)(N1CC1)N1CC1 [Thio-TEPA] (500 nM)
101

====

Item-by-item account of normalised response
System: HCC1937
procedure-details: normalised response (% of control), CellTiter-Glo; higher = more viable cells (100 = DMSO, 0 = benzethonium chloride kill control)
condition-label: incubation time: 72 h
# output: bare number, implied unit %

# compound, measurement-target, property, readout-unit, observed-measurement
rows = [
    ("CN(C)CCOc1ccc(/C(=C(/CCCl)c2ccccc2)c2ccccc2)cc1 [Toremifene] (100 nM)", "HCC1937", "normalised response", "%", 99.7),
]

Find normalised response for COc1cc2/c(=N/c3ccc(Br)cc3F)nc[nH]c2cc1OCC1CCN(C)CC1 [Vandetanib] (10 nM) on HCC1937 and write it down.
94.6

Supply normalised response measured with HCC1937 for CC(C)C[C@@H](C(=O)N[C@H](C(=O)OC1CCCC1)c1ccccc1)[C@H](O)C(=O)NO [Tosedostat] (100 nM) .
77.5

Look up and report measured normalised response (HCC1937) for the following compound: Cc1cc(Nc2cc(CN3CCOCC3)c3nc(C)c(Cc4ccc(Cl)cc4F)n3n2)n[nH]1 [Gandotinib] (100 nM)
104

GET normalised response | system: HCC1937 | item: O=C(/C=C/c1cccc(S(=O)(=O)Nc2ccccc2)c1)NO [Belinostat] (100 nM)
83.9

Report the value of normalised response obtained on HCC1937 for CCOC(=O)CCNc1cc(N2CCc3ccccc3CC2)nc(-c2ccccn2)n1 [GSK-J4] (1000 nM) .
84.7

# lookup: HCC1937 normalised response, key = Nc1cc(C(F)(F)F)c(-c2cc(N3CCOCC3)nc(N3CCOCC3)n2)cn1 [Buparlisib] (100 nM)
98
